# assay_procedure: qHTS of pediatric cancer cell lines to identify multiple opportunities for drug repurposing: Primary screen for OHS-50 cells (AID 1347103); also: nearly all actives have a fitted effect of over 40% in size
# details: OHS-50 osteosarcoma viability, CellTiter-Glo luminescence, 48 h; series mostly up to 57.3 µM
Inconclusive results are not listed. The source made the active and inactive calls. Calls follow the shape of the dose curve; as a rule, active = well fitted cell-killing curve with a large enough effect; inconclusive = small, poorly fitted or top-dose-only effect; inactive = no such curve, though single readings can be large or run the other way.
Outcome codes: Yes = active, No = inactive

>>> class_assignment("CCc1ccc(CCOc2ccc(CC3SC(=O)NC3=O)cc2)nc1 (stereo unspecified)")
"No"
>>> class_assignment("Fc1ccc(Cl)cc1-c1nc(Nc2ccncc2)c2nccnc2n1")
"No"
>>> class_assignment("c1ccc([C@H]2CN3CCSC3=N2)cc1")
"No"
>>> class_assignment("O=C1CCC(N2C(=O)c3ccccc3C2=O)C(=O)N1 (stereo unspecified)")
"No"
>>> class_assignment("CCOC(=O)C1=C[C@]2(CC)CCCN3CCc4c(n1c1ccccc41)[C@@H]32")
"Yes"
>>> class_assignment("Oc1ccc(C2CNCCc3c2cc(O)c(O)c3Cl)cc1 (stereo unspecified)")
"No"

----------
In this section we review reported remaining proliferation (% of control), lower = more inhibition values for a set of molecules.
# assay_procedure: qHTS profiling for inhibitors of Plasmodium falciparum (HB3) proliferation (AID 743324);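 also: 100% = DMSO vehicle wells and 0% = artemisinin-treated control wells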
# details: Plasmodium falciparum HB3 blood-stage proliferation; at 28.7 µM (top of the series) unless noted
endpoint_name: remaining proliferation (% of control), lower = more inhibition (%)

>>> value_measured("O=C(O)CCc1ccc(NCc2cccc(Oc3ccccc3)c2)cc1")
98.6
>>> value_measured("CC1(C)SCCN(S(=O)(=O)c2ccc(OCC#CCO)cc2)[C@@H]1C(=O)NO")
81.4
>>> value_measured("CS(=O)(=O)c1cccc(CNc2nc(Nc3ccc4c(c3)CCC(=O)N4)ncc2C(F)(F)F)c1")
101
>>> value_measured("Cc1cccc(-c2nn(C(=S)Nc3ccccc3)cc2-c2ccnc3ccccc23)n1")
79.6
>>> value_measured("Cc1c(CN2CCN(C(=O)C(C)C)CC2)sc2c(N3CCOCC3)nc(-c3cnc(N)nc3)nc12")
8.2
>>> value_measured("C[C@H](NC(=O)Cc1cc(F)cc(F)c1)C(=O)N[C@@H]1C(=O)N(C)c2ccccc2-c2ccccc21")
6.09
>>> value_measured("NC(=O)c1ccc(-c2nc(-c3ccc4c(c3)OCO4)c(-c3ccccn3)[nH]2)cc1")
71.6
>>> value_measured("Cc1n[nH]c(C)c1Cc1sc2c(c1C(=O)N1C[C@H](O)CO1)c(=O)n(C)c(=O)n2CC(C)C")
81.9
>>> value_measured("Fc1ccc(Cl)cc1-c1nc(Nc2ccncc2)c2nccnc2n1")
13.2

----------
# assay_procedure: qHTS of pediatric cancer cell lines to identify multiple opportunities for drug repurposing: Confirmatory screen for SK-N-MC cells (AID 1347111);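 also: cells exposed to compound for 48 h before the readout; nearly all actives have a fitted effect of over 70% in size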
# details: SK-N-MC cell viability; series mostly up to 45.9 µM
Results filed as inconclusive are left out. The source made the active and inactive calls. Calls follow the shape of the dose curve; as a rule, active = well fitted cell-killing curve with a large enough effect; inconclusive = small, poorly fitted or top-dose-only effect; inactive = no such curve, though single readings can be large or run the other way.
Labels: T for active, F for inactive

>>> class_assignment("O=C(NOC[C@H](O)CO)c1ccc(F)c(F)c1Nc1ccc(I)cc1F")
"F"
>>> class_assignment("Cc1c(CN2CCN(C(=O)C(C)C)CC2)sc2c(N3CCOCC3)nc(-c3cnc(N)nc3)nc12")
"T"
>>> class_assignment("CCOc1ccn(-c2ccc(F)cc2)c(=O)c1C(=O)Nc1ccc(Oc2ccnc(N)c2Cl)c(F)c1")
"T"
>>> class_assignment("CCC(C)n1ncn(-c2ccc(N3CCN(c4ccc(OC[C@H]5CO[C@](Cn6cncn6)(c6ccc(Cl)cc6Cl)O5)cc4)CC3)cc2)c1=O (stereo not given in full)")
"T"
>>> class_assignment("NC(=O)c1ccc(I)c([N+](=O)[O-])c1")
"T"
>>> class_assignment("OC[C@H](Cc1ccccc1)Nc1nc(Oc2ccc3c(c2)CCC3)nc2c1ncn2Cc1ccc(-c2ccccc2)cc1")
"T"
>>> class_assignment("NCCCC(N)(C(=O)O)C(F)F (stereo not given)")
"F"
>>> class_assignment("C#Cc1cccc(Nc2ncnc3cc(OCCOC)c(OCCOC)cc23)c1")
"T"
>>> class_assignment("CNCc1ccc(-c2[nH]c3cc(F)cc4c3c2CCNC4=O)cc1")
"T"
>>> class_assignment("Cn1cnc2c(F)c(Nc3ccc(Br)cc3Cl)c(C(=O)NOCCO)cc21")
"F"

----------
# System: CP191
# assay_procedure: qHTS profiling for inhibitors of Plasmodium falciparum proliferation (AID 504749); also: nearly all actives have a fitted effect of over 60% in size
# details: P. falciparum in erythrocytes, SYBR Green DNA, 72 h; series mostly up to 28.7 µM
Inconclusive results are not listed. Active and inactive are the calls of the source. Calls come from the whole dose curve; as a rule, active = well fitted inhibition curve with a large enough effect; inconclusive = small, poorly fitted or top-dose-only effect; inactive = flat fitted curve, though single readings scatter.
Outcome codes: active, inactive

>>> class_assignment("Cc1ccccc1C(OCCN(C)C)c1ccccc1 (stereo not given)")
"inactive"
>>> class_assignment("CC(C[N+](C)(C)C)OC(N)=O (stereo not given)")
"inactive"
>>> class_assignment("Cc1[nH]c(=O)c(C#N)cc1-c1ccncc1")
"inactive"
>>> class_assignment("NS(=O)(=O)c1cc2c(cc1Cl)NC=NS2(=O)=O")
"inactive"
>>> class_assignment("NC[C@H](O)c1ccc(O)c(O)c1")
"inactive"
>>> class_assignment("O=C1CCc2cc(OCCCCc3nnnn3C3CCCCC3)ccc2N1")
"inactive"
>>> class_assignment("Nc1nc2c(ncn2COCCO)c(=O)[nH]1")
"inactive"
>>> class_assignment("CNC[C@H](O)c1cccc(O)c1")
"inactive"
>>> class_assignment("CC(c1cc2ccccc2s1)N(O)C(N)=O (stereo not given)")
"inactive"
>>> class_assignment("CCc1ccc(CCOc2ccc(CC3SC(=O)NC3=O)cc2)nc1 (stereo not given)")
"inactive"
>>> class_assignment("NCCc1ccc(O)c(O)c1")
"inactive"
>>> class_assignment("NNCCc1ccccc1")
"inactive"
>>> class_assignment("OC(CN1CCC(Cc2ccc(F)cc2)CC1)c1ccc(Cl)cc1 (stereo not given)")
"inactive"
>>> class_assignment("N=c1nc(N2CCCCC2)cc(N)n1O")
"inactive"
>>> class_assignment("NCCCC(N)(C(=O)O)C(F)F (stereo not given)")
"inactive"
>>> class_assignment("NC(N)=NC(=O)c1nc(Cl)c(N)nc1N")
"active"
>>> class_assignment("NC(=O)c1cnccn1")
"inactive"
>>> class_assignment("Nc1ccc(S(=O)(=O)Nc2ccnn2-c2ccccc2)cc1")
"inactive"
>>> class_assignment("O=NN(CCCl)C(=O)NCCCl")
"inactive"
>>> class_assignment("N[C@@H]1CONC1=O")
"inactive"

----------
# assay_procedure: qHTS of pediatric cancer cell lines to identify multiple opportunities for drug repurposing: Primary screen for Saos-2 cells (AID 1347097); also: nearly all actives have a fitted effect of over 40% in size
# details: Saos-2 viability, CellTiter-Glo ATP luminescence, 48 h; series mostly up to 46 µM
Inconclusive results are not listed. Active and inactive are the calls of the source. Calls follow the shape of the dose curve; as a rule, active = well fitted cell-killing curve with a large enough effect; inconclusive = small, poorly fitted or top-dose-only effect; inactive = no such curve, though single readings can be large or run the other way.
Outcomes: active, inactive

>>> class_assignment("NC(=O)c1ccc(-c2nc(-c3ccc4c(c3)OCO4)c(-c3ccccn3)[nH]2)cc1")
"inactive"
>>> class_assignment("COc1cc2c(cc1OC)CN(CCc1ccc(NC(=O)c3cccc4c(=O)c5cccc(OC)c5[nH]c34)cc1)CC2")
"inactive"
>>> class_assignment("CC(C)(C)NCC(O)c1ccc(O)c(CO)c1 (centres undefined)")
"inactive"
>>> class_assignment("NC(=O)c1ccc(I)c([N+](=O)[O-])c1")
"inactive"
>>> class_assignment("c1ccc([C@H]2CN3CCSC3=N2)cc1")
"inactive"
>>> class_assignment("CC[C@H](Nc1ncnc2nc[nH]c12)c1nc2cccc(F)c2c(=O)n1-c1ccccc1")
"active"
>>> class_assignment("CCn1cc(C(=O)O)c(=O)c2cc(F)c(N3CCNC(C)C3)c(F)c21 (centres undefined)")
"inactive"
>>> class_assignment("N=c1nc(N2CCCCC2)cc(N)n1O")
"inactive"
>>> class_assignment("Cc1cnc(NC(=O)C2=C(O)c3ccccc3S(=O)(=O)N2C)s1")
"inactive"
>>> class_assignment("COc1ccc2c3n(c(=NC(=O)c4cccnc4)nc2c1OC)CCN3")
"active"
>>> class_assignment("CNC(=O)c1ccccc1Sc1ccc2c(/C=C/c3ccccn3)n[nH]c2c1")
"active"
>>> class_assignment("CCn1c(-c2nonc2N)nc2cnc(Oc3cccc(NC(=O)c4ccc(OCCN5CCOCC5)cc4)c3)cc21")
"active"
>>> class_assignment("C#Cc1cccc(Nc2ncnc3cc(OCCOC)c(OCCOC)cc23)c1")
"active"
>>> class_assignment("CC(C)(N)C(=O)N[C@H](COCc1ccccc1)C(=O)N1CCC2(CC1)CN(S(C)(=O)=O)c1ccccc12")
"inactive"
>>> class_assignment("CCCS(=O)(=O)Nc1ccc(F)c(C(=O)c2c[nH]c3ncc(Cl)cc23)c1F")
"active"
>>> class_assignment("O=C(O)COCCN1CCN(C(c2ccccc2)c2ccc(Cl)cc2)CC1 (centres undefined)")
"inactive"
>>> class_assignment("NS(=O)(=O)c1cc2c(cc1Cl)NC=NS2(=O)=O")
"inactive"
>>> class_assignment("CC(=O)Oc1ccccc1C(=O)O")
"inactive"
>>> class_assignment("Nc1ncnc2nc(-c3ccc(N4CCOCC4)nc3)cc(-c3cccc(Br)c3)c12")
"inactive"
>>> class_assignment("Cc1cccc(-c2[nH]c(C(C)(C)C)nc2-c2ccc3nccnc3c2)n1")
"active"
>>> class_assignment("CC(C[N+](C)(C)C)OC(N)=O (centres undefined)")
"inactive"
>>> class_assignment("Cc1c(CN2CCN(C(=O)C(C)C)CC2)sc2c(N3CCOCC3)nc(-c3cnc(N)nc3)nc12")
"active"
>>> class_assignment("Cc1ccccc1C(OCCN(C)C)c1ccccc1 (centres undefined)")
"inactive"
>>> class_assignment("CCOc1cc(C=C2C(=O)N(c3ccccc3)N=C2C)cc(Cl)c1OCC(=O)OC")
"inactive"
>>> class_assignment("O=C(O)[C@@H](c1ccc(OCc2ccc3ccccc3n2)cc1)C1CCCC1")
"inactive"
>>> class_assignment("Cc1oncc1C(=O)Nc1ccc(C(F)(F)F)cc1")
"inactive"
>>> class_assignment("O=c1[nH]cnc2[nH]ncc12")
"inactive"
>>> class_assignment("Cc1[nH]c(=O)c(C#N)cc1-c1ccncc1")
"inactive"
>>> class_assignment("O=C1CCc2cc(OCCCCc3nnnn3C3CCCCC3)ccc2N1")
"inactive"
>>> class_assignment("NC(=O)c1cnccn1")
"inactive"
>>> class_assignment("NCCCC(N)(C(=O)O)C(F)F (centres undefined)")
"inactive"
>>> class_assignment("CCOc1ccn(-c2ccc(F)cc2)c(=O)c1C(=O)Nc1ccc(Oc2ccnc(N)c2Cl)c(F)c1")
"active"
>>> class_assignment("C[C@]12CCC(=O)C=C1CC[C@@H]1[C@@H]2[C@@H](O)C[C@@]2(C)[C@H]1CC[C@]2(O)C(=O)CO")
"inactive"
>>> class_assignment("NC(N)=NC(=O)c1nc(Cl)c(N)nc1N")
"inactive"
>>> class_assignment("COc1ccc(-c2ccc3c(N4CCOC[C@H]4C)nc(N4CCOC[C@H]4C)nc3n2)cc1CO")
"active"
>>> class_assignment("Cc1cc2c(F)c(Oc3ncnn4cc(OC[C@@H](C)O)c(C)c34)ccc2[nH]1")
"active"
>>> class_assignment("CNCc1ccc(-c2[nH]c3cc(F)cc4c3c2CCNC4=O)cc1")
"inactive"
>>> class_assignment("N#CC[C@H](C1CCCC1)n1cc(-c2ncnc3[nH]ccc23)cn1")
"inactive"
>>> class_assignment("Cc1cn[nH]c1")
"inactive"
>>> class_assignment("Cc1cc([C@@H](C)Nc2ccccc2C(=O)O)c2nc(N3CCOCC3)cc(=O)n2c1")
"active"
>>> class_assignment("CO[C@@H]1[C@H](N(C)C(=O)c2ccccc2)C[C@H]2O[C@]1(C)n1c3ccccc3c3c4c(c5c6ccccc6n2c5c31)C(=O)NC4")
"active"
>>> class_assignment("Cc1cc(SCc2sc(-c3ccc(C(F)(F)F)cc3)nc2C)ccc1OCC(=O)O")
"inactive"
>>> class_assignment("CC1(C)Cc2c(-c3ccccc3)c(-c3ccc(Cl)cc3)c(CC(=O)O)n2C1")
"active"
>>> class_assignment("O=C1CCC(N2C(=O)c3ccccc3C2=O)C(=O)N1 (centres undefined)")
"inactive"

Recorded values, source PubChem BioAssay (NCATS).
